# Target Entity: T1, mouse TEAD4(210-427) (mouse, UniProt Q62296 210-427)
# T1 construct: mouse TEAD4, residues 210-427; The tag was cleaved with 3C protease only for the crystallisation; nothing is said for SPR and FP; also called mTEAD4; source: E. coli BL21 DE3 RIL, purified (His Trap, SEC)
# T1 sequence (Q62296 210-427): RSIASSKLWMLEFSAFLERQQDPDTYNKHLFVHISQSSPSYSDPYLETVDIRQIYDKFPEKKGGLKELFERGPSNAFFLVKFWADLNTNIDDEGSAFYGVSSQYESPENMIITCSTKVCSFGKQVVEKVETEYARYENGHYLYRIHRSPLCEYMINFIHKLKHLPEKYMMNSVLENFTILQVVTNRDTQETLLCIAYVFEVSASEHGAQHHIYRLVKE
# Method Notes: fluorescence polarisation; competition: acetylated peptide titrated (50 µM-6 pM) against mTEAD4 (400 nM) with a FITC-labelled tracer peptide (10 nM; tracer not named); read after 1 h
# Condition Set: both partners purified
Bridge positions count the residues as written; N and C are the ends. Ends that are not written are not given here.
List of IC50 values.

Binder	IC50
Ac-SVEAHFAKALGDTWLQIKAA (lactam 3-18, macrocyclic VGL4 two-helix motif 4E with one alanine; numbers count on: mouse VGL4 as in PDB 4LN0; Synthesised on Rink amide resin: C-terminal amide surmised; source: synthetic peptide) [peptide 16 (alanine scan of 4E), acetylated]	3000 nM
Ac-SVEDHFAKALGDTWLAIKAA (lactam 3-18, macrocyclic VGL4 two-helix motif 4E with one alanine; numbers count on: mouse VGL4 as in PDB 4LN0; Synthesised on Rink amide resin: C-terminal amide surmised; source: synthetic peptide) [peptide 25 (alanine scan of 4E), acetylated]	60 nM
Ac-SAEDHFAKALGDTWLQIKAA (lactam 3-18, macrocyclic VGL4 two-helix motif 4E with one alanine; numbers count on: mouse VGL4 as in PDB 4LN0; Synthesised on Rink amide resin: C-terminal amide surmised; source: synthetic peptide) [peptide 15 (alanine scan of 4E), acetylated]	2100 nM
